Data provenance is patent US6339146B1.

- tested.on: β-glucosidase derived from Almond
- test.summary: β-Glucosidase inhibition test (pNP-β-Glc hydrolysis)
- measurement.conditions: β-glucosidase derived from almond; concentration varied from 0 to 5 mM; read-out: 50% inhibition concentration
value.type: pIC50
Scale for pIC50: -log10 of concentration given in mol/L; no unit attached.

q: For the record OCC1OC(OCC2CCCC2)C(O)C(O)C1O (stereo not drawn) [CPEM-β-Glc, cyclopentylmethyl-β-glucoside] , what value of pIC50 is listed for β-glucosidase derived from Almond?
a: 3.77
